Target: α1A-ARs (Homo sapiens, UniProt P35348)
Sequence (P35348 1-466): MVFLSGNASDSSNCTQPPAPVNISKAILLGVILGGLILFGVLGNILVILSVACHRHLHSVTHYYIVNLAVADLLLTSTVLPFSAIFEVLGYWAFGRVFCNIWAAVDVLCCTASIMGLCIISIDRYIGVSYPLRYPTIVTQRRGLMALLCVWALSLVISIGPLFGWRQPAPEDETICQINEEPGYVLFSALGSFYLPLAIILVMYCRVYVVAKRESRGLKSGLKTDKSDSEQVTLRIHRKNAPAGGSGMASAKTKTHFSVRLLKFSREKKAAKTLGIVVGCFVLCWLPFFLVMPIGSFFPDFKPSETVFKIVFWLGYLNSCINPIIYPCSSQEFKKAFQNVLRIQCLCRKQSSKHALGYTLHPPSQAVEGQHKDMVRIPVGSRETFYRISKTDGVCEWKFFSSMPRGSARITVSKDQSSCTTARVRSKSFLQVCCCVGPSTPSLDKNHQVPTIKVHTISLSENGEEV
Experiment: Intrinsic activity at α1A-ARs, β-lactamase reporter gene, FRET substrate
Details: antagonist, in abstract
metric: EC50
Report the figure along with its unit, number first.

Sure, the documented EC50 for "O=S(=O)(NCC1CCN(CCOc2ccccc2OCC(F)(F)F)CC1)c1cccc(Cl)c1F" is 0.8 nM

----------
Target: α1D-ARs (Homo sapiens)
Sequence (P25100 whole entry): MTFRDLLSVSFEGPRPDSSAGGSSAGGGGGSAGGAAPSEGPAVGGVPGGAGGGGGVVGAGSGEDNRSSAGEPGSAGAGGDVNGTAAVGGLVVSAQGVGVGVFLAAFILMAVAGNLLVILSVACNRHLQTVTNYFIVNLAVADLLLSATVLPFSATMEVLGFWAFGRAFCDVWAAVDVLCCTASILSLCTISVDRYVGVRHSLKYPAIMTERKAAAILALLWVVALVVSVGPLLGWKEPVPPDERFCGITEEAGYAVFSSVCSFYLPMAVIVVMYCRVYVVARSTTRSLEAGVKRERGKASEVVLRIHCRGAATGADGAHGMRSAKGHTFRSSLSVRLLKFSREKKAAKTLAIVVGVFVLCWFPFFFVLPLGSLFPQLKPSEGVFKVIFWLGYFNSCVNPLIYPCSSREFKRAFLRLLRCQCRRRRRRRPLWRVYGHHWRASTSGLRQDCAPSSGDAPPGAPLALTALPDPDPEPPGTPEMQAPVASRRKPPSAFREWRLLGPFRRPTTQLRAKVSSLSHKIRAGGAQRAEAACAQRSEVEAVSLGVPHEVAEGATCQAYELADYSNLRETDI
Test: Intrinsic activity at α1D-ARs, aequorin calcium mobilization luminescence
Assay type: cell-based
Conditions: antagonist mode, three independent experiments
pIC50: −log10 of the molar value.
Use 9 as the dividing line for pIC50, with the line itself on the true (1) side and lower values as false (0).

CCOc1ccccc1OCCN[C@H](C)Cc1ccc(OC)c(S(N)(=O)=O)c1 [tamsulosin, reference compound] : true (1)
O=S(=O)(NCC1CCN(CCOc2ccccc2OCC(F)(F)F)CC1)c1cc(Cl)ccc1F : false (0)
COc1ccc(S(=O)(=O)NCC2CCN(CCOc3ccccc3OCC(F)(F)F)CC2)cc1OC : false (0)

Field: next compound
Prompt: Does pIC50 meet or surpass 9 for COc1cc2nc(N3CCN(C(=O)C4CCCO4)CC3)nc(N)c2cc1OC (stereo not drawn) [terazosin, reference compound] ?
Completion: true (1)

----------
Target: α1-ARs
Experiment: Radioligand binding, displacement of [3H]-Prazosin from α1-ARs on rat cerebral cortex
Conditions: [3H]-Prazosin, rat cerebral cortex; ± SEM, two independent experiments
metric: pKi
The meaning of pKi here: minus log10 of the concentration in molar units.

Observe how each entry below is paired with its result.
COc1ccc(Cl)cc1S(=O)(=O)NCC1CCN(CCOc2ccccc2OCC(F)(F)F)CC1 : 7.02
O=S(=O)(NCC1CCN(CCOc2ccccc2OCC(F)(F)F)CC1)c1ccc(F)cc1 : 7.70
COc1ccc(S(=O)(=O)N[C@H]2CCN(CCOc3ccccc3OCC(F)(F)F)C2)cc1OC : 7.15
O=S(=O)(N[C@@H]1CCN(CCOc2ccccc2OCC(F)(F)F)C1)c1cc(Cl)ccc1F : 6.77
COc1ccc(S(=O)(=O)NCC2CCN(CCOc3ccccc3OCC(F)(F)F)CC2)cc1OC : 7.72

Sure, the documented pKi for "O=S(=O)(N[C@H]1CCN(CCOc2ccccc2OCC(F)(F)F)C1)c1ccc(F)cc1" is 6.87

Sure, the documented pKi for "O=S(=O)(N[C@H]1CCN(CCOc2ccccc2OCC(F)(F)F)C1)c1cc(Cl)ccc1F" is 6.93

----------
Assay: In vitro metabolic stability in rat-liver microsomes (RLM)
Format: in vitro ADME
Details: male, rat, rat liver microsomes, pH 7.4; RLM 0.2 mg/mL, compound 10 μM, 37 °C
Entries and their microsomal CLint at 10 μM
Kindly answer with a numeric value in µL/min/mg, unit omitted.

Observe how each entry below is paired with its result.
CCOc1ccccc1OCCN[C@H](C)Cc1ccc(OC)c(S(N)(=O)=O)c1 [tamsulosin, reference compound] : 41
O=S(=O)(NCC1CCN(CCOc2ccccc2OCC(F)(F)F)CC1)c1cccc(Cl)c1F : 67

Sure, the documented microsomal CLint at 10 μM for "CC(C)Oc1ccccc1OCCN1CCC(CNS(=O)(=O)c2cccc(Cl)c2F)CC1" is 87

Sure, the documented microsomal CLint at 10 μM for "O=S(=O)(NCC1CCN(CCOc2ccccc2OCC(F)(F)F)CC1)c1cc(Cl)ccc1F" is 91.7

----------
Target: α1-ARs
Experiment: Radioligand binding, displacement of [3H]-Prazosin from α1-ARs on rat cerebral cortex
Conditions: [3H]-Prazosin, rat cerebral cortex; ± SEM, two independent experiments
Protocol: The pharmacological profile of the new compounds was assessed in radioligand-binding assays as the ability to displace [^3H]-Prazosin or [^3H]-Clonidine from α1- and α2-ARs, respectively, on rat cerebral cortex. The inhibition constants (Ki) were calculated from the Cheng-Prusoff equation [24]. The affinity of the obtained compounds was evaluated by radioligand-binding assays (the ability to displace [^3H]-Prazosin and [^3H]-Clonidine from α1- and α2-ARs, respectively) on rat cerebral cortex. […]
Entries and their pKi
The meaning of pKi here: minus log10 of the concentration in molar units.

Observe how each entry below is paired with its result.
O=S(=O)(NCC1CCN(CCOc2ccccc2OCC(F)(F)F)CC1)c1cccc(Cl)c1F [Compound 9] : 7.30
COc1ccc(S(=O)(=O)N[C@@H]2CCN(CCOc3ccccc3OCC(F)(F)F)C2)cc1OC [Compound 17] : 6.98
O=S(=O)(N[C@@H]1CCN(CCOc2ccccc2OCC(F)(F)F)C1)c1ccc(F)cc1 [Compound 13] : 6.73

From here, focus on the item given below.
Record O=S(=O)(NCC1CCN(CCOc2ccccc2OCC(F)(F)F)CC1)c1cc(Cl)ccc1F [Compound 10] / α1-ARs, pKi recorded as 7.59

----------
Entries and their log10 of IC50
Molecular target: α1B-ARs (Homo sapiens, UniProt P35368)
Sequence (P35368 whole entry): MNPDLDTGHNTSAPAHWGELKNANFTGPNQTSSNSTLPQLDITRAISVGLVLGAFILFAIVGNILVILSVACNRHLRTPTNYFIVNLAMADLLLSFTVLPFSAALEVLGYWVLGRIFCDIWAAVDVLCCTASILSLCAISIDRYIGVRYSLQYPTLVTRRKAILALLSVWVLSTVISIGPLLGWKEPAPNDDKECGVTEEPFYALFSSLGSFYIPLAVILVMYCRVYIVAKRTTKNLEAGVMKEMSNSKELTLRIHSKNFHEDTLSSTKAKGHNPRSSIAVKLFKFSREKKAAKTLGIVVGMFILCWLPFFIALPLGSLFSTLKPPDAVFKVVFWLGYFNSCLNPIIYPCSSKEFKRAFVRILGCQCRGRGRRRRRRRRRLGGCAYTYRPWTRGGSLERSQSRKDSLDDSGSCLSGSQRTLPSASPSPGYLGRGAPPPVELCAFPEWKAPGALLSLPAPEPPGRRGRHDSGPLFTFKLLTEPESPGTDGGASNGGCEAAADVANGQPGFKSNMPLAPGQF
Test: Intrinsic activity at α1B-ARs, aequorin calcium mobilization luminescence
Type: cell-based
Settings: antagonist mode, three independent experiments
Log scale reminder: IC50 in nM, then log10 taken.

CCOc1ccccc1OCCN[C@H](C)Cc1ccc(OC)c(S(N)(=O)=O)c1 [tamsulosin, reference compound] : 0.11

Record O=S(=O)(NCC1CCN(CCOc2ccccc2OCC(F)(F)F)CC1)c1ccc(F)cc1 [Compound 8] / α1B-ARs (Homo sapiens, UniProt P35368), log10 of IC50 recorded as 0.92

Record COc1ccc(S(=O)(=O)NCC2CCN(CCOc3ccccc3OCC(F)(F)F)CC2)cc1OC [Compound 12] / α1B-ARs (Homo sapiens, UniProt P35368), log10 of IC50 recorded as -1.70

Record O=S(=O)(NCC1CCN(CCOc2ccccc2OCC(F)(F)F)CC1)c1cccc(Cl)c1F [Compound 9] / α1B-ARs (Homo sapiens, UniProt P35368), log10 of IC50 recorded as 0.59

Record O=S(=O)(NCC1CCN(CCOc2ccccc2OCC(F)(F)F)CC1)c1cc(Cl)ccc1F [Compound 10] / α1B-ARs (Homo sapiens, UniProt P35368), log10 of IC50 recorded as 1.00

----------
Target: α1A-ARs (Homo sapiens)
Test: Intrinsic activity at α1A-ARs, β-lactamase reporter gene, FRET substrate
Type: cell-based
Settings: antagonist mode, three independent experiments
Entries and their IC50
Report the figure along with its unit, number first.

Observe how each entry below is paired with its result.
COc1ccc(S(=O)(=O)NCC2CCN(CCOc3ccccc3OCC(F)(F)F)CC2)cc1OC [Compound 12] : 15 nM
O=S(=O)(NCC1CCN(CCOc2ccccc2OCC(F)(F)F)CC1)c1cc(Cl)ccc1F [Compound 10] : 2.1 nM
O=S(=O)(NCC1CCN(CCOc2ccccc2OCC(F)(F)F)CC1)c1cccc(Cl)c1F [Compound 9] : 0.8 nM

From here, focus on the item given below.
Sure, the documented IC50 for O=S(=O)(NCC1CCN(CCOc2ccccc2OCC(F)(F)F)CC1)c1ccc(F)cc1 [Compound 8] is 3.8 nM

----------
System: α1-ARs
Test: Radioligand binding, displacement of [3H]-Prazosin from α1-ARs on rat cerebral cortex
Conditions: Ki α2 / Ki α1
Assign labels as follows, please: 1 for Sα2/α1 (ratio of affinity for α2- and α1-ARs) below 20; 0 for Sα2/α1 (ratio of affinity for α2- and α1-ARs) equal to or exceeding 20.

COc1ccc(S(=O)(=O)N[C@@H]2CCN(CCOc3ccccc3OCC(F)(F)F)C2)cc1OC : 1
O=S(=O)(NCC1CCN(CCOc2ccccc2OCC(F)(F)F)CC1)c1cc(Cl)ccc1F : 0
O=S(=O)(N[C@@H]1CCN(CCOc2ccccc2OCC(F)(F)F)C1)c1ccc(F)cc1 : 1
O=S(=O)(N[C@H]1CCN(CCOc2ccccc2OCC(F)(F)F)C1)c1ccc(F)cc1 : 0
COc1ccc(Cl)cc1S(=O)(=O)NCC1CCN(CCOc2ccccc2OCC(F)(F)F)CC1 : 1

Prompt: Hello, I'm reviewing records and need to know if Sα2/α1 (ratio of affinity for α2- and α1-ARs) of "O=S(=O)(NCC1CCN(CCOc2ccccc2OCC(F)(F)F)CC1)c1cccc(Cl)c1F" is below 20. Could you check?
Completion: 1

Prompt: Hello, I'm reviewing records and need to know if Sα2/α1 (ratio of affinity for α2- and α1-ARs) of "COc1ccc(S(=O)(=O)NCC2CCN(CCOc3ccccc3OCC(F)(F)F)CC2)cc1OC" is below 20. Could you check?
Completion: 0

Prompt: Hello, I'm reviewing records and need to know if Sα2/α1 (ratio of affinity for α2- and α1-ARs) of "COc1ccc(S(=O)(=O)N[C@H]2CCN(CCOc3ccccc3OCC(F)(F)F)C2)cc1OC" is below 20. Could you check?
Completion: 1
